Biological target: PI3Kγ (p110γ) Recombinant Human Protein (Homo sapiens (Human), UniProt P48736)
Sequence (P48736 whole entry): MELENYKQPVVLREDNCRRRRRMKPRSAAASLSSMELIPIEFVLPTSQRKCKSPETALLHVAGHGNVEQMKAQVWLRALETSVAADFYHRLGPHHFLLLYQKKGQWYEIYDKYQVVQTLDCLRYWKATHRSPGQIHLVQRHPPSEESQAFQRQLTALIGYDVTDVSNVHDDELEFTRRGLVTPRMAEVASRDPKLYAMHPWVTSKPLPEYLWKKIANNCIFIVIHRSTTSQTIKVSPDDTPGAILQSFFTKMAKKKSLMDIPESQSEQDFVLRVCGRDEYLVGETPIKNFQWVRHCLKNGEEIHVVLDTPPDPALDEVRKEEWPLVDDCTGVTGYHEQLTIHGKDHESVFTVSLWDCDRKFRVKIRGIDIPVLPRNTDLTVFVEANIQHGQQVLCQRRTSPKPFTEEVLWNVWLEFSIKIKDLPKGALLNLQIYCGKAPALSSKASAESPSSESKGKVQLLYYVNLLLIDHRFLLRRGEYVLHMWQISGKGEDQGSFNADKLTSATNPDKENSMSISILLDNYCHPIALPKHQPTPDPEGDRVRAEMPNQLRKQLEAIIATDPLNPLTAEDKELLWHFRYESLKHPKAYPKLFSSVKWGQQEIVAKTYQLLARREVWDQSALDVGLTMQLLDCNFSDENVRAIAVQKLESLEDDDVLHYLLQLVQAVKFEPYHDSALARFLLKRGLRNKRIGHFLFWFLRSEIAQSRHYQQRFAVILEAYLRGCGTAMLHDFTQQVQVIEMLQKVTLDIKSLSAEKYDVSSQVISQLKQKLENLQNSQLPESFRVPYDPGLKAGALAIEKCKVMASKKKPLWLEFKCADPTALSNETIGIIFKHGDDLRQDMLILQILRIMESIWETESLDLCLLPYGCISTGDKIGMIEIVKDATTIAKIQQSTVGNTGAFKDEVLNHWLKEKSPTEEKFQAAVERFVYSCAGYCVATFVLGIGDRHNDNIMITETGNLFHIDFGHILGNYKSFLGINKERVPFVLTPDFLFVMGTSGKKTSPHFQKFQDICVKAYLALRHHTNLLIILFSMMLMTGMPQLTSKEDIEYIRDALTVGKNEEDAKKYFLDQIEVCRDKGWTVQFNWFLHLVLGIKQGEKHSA
Assay: PI3K-γ scintillation proximity assay
Settings: 2 μM ATP, 20 μM PIP2
Counter-ions that a name gives are not always drawn.
observation-type: IC50

Examples with answers:
compound: CC(NC(=O)c1c(N)nn2cccnc12)c1cc(Cl)c2cncn2c1N1CCC[C@H]1C (stereo partly drawn) [Example 71A, bistrifluoroacetate]
observation-type: IC50
measured: < 100 nM

compound: CC(NC(=O)c1c(N)nn2cccnc12)c1cc(Cl)c2c(Cl)cnn2c1N1CCCS(=O)(=O)CC1 (stereo not drawn) [Example 114, trifluoroacetate]
observation-type: IC50
measured: < 100 nM

compound: CC(NC(=O)c1c(N)nn2cccnc12)c1cc(Cl)c2c(C(F)(F)F)ncn2c1N1CCNS(=O)(=O)CC1 (racemic) [Example 159, trifluoroacetate salt]
observation-type: IC50
measured: < 500 nM

compound: CC(NC(=O)c1c(N)nn2cccnc12)c1cc(Cl)c2cn[nH]c2c1N1CCC(O)C1 (single isomer, unassigned) [Example 90B, bis(trifluoroacetate)]
observation-type: IC50
measured: < 100 nM

compound: CC(NC(=O)c1c(N)nn2cccnc12)c1cc(Cl)c2c(Cl)cnn2c1N1CCS(=O)(=O)C(C)(C)C1 (stereo not drawn) [Example 116, trifluoroacetate]
observation-type: IC50
measured: < 100 nM

Which IC50 value is on record for CC(NC(=O)c1c(N)nn2cccnc12)c1cc(Cl)c2cncn2c1N1CC[C@@H](F)C1 (stereo partly drawn) [Example 75A, bistrifluoroacetate] ?
< 100 nM

* * *

Target: PI3Kγ (p110γ) Recombinant Human Protein (Homo sapiens (Human), UniProt P48736)
Experiment: PI3K-γ scintillation proximity assay
Type: biochemical
Conditions: 2 μM ATP, 20 μM PIP2
Counter-ions that a name gives are not always drawn.
Each entry below lists one item and its recorded IC50 value.

See these solved cases before continuing.
compound: C[C@H](NC(=O)c1c(N)nn2cccnc12)c1cc(Cl)c2cncn2c1N1CCS(=O)(=O)[C@H](C)C1 [Example 31A, trifluoroacetate salt]
IC50: < 100 nM
//
compound: Cc1nc(F)c2c(Cl)cc(C(C)NC(=O)c3c(N)nn4cccnc34)c(-c3cn[nH]c3)n12 (racemic) [Example 123, trifluoroacetate salt]
IC50: < 100 nM
//
compound: CC(NC(=O)c1c(N)nn2cccnc12)c1cc(Cl)c2cncn2c1N1CCC(O)C1 (stereo not shown) [Example 148, trifluoroacetate salt]
IC50: < 500 nM
//
compound: CC(NC(=O)c1c(N)nn2cccnc12)c1cc(Cl)c2cncn2c1N1CCS(=O)(=O)C(C)(C)C1 (stereo not shown) [Example 40, trifluoroacetate salt]
IC50: < 100 nM
//
compound: CCOc1c(C(C)NC(=O)c2c(N)nn3cccnc23)cc(Cl)c2cn[nH]c12 (single isomer, unassigned) [Example 3b, trifluoroacetate]
IC50: > 2000 nM

Can you look up the measured IC50 of CCOc1c(C(C)NC(=O)c2c(N)nn3ccc(-c4cncc(CO)c4)nc23)cc(Cl)c2cn[nH]c12 (stereo not shown) for me?
< 100 nM

Note, next up: CC(NC(=O)c1c(N)nn2cccnc12)c1cc(Cl)c2cn[nH]c2c1C1=CCN(C(=O)OCc2ccccc2)CC1 (stereo not shown) [Example 98, bis(trifluoroacetate)]
< 500 nM

# repeat for CC(NC(=O)c1c(N)nn2cccnc12)c1cc(Cl)c2cncn2c1N1CCS(=O)(=O)CC1C (stereo not shown) [Example 38B, trifluoroacetate salt]
< 100 nM

Thanks! And CC(NC(=O)c1c(N)nn2cccnc12)c1cc(Cl)c2cncn2c1N1C[C@@H](O)C[C@H](O)C1 (stereo partly shown) [Example 150, trifluoroacetate salt] ?
< 100 nM

Next compound: CC(NC(=O)c1c(N)nn2cccnc12)c1cc(Cl)c2cncn2c1N1CCC(C#N)C1 (racemic) [Example 32, trifluoroacetate salt]
< 100 nM

Record: CC(NC(=O)c1c(N)nn2cccnc12)c1cc(Cl)c2cncn2c1N1CC[C@H](F)C1 (stereo partly shown) [Example 75B, bistrifluoroacetate]
< 100 nM

Further, for CC(NC(=O)c1c(N)nn2cccnc12)c1cc(Cl)c2cncn2c1N1CCC(O)(C(F)(F)F)CC1 (stereo not shown) ?
< 100 nM

Can you handle Cc1ncc2c(Cl)cc(C(C)NC(=O)c3c(N)nn4cccnc34)c(N3CCCS(=O)(=O)CC3)n12 (racemic) [Example 158, trifluoroacetate salt] next?
< 100 nM

For CNC(=O)c1ccc(-c2c(C(C)NC(=O)c3c(N)nn4cccnc34)cc(Cl)c3cncn23)cn1 (racemic) [Example 132, trifluoroacetate salt] then?
< 500 nM

Next entry: CC(NC(=O)c1c(N)nn2cccnc12)c1cc(Cl)c2cncn2c1N1CCC(C)(C)C1 (stereo not shown) [Example 74, bistrifluoroacetate]
< 100 nM

Same for CC(NC(=O)c1c(N)nn2cccnc12)c1cc(Cl)c2cncn2c1N1CC[S+]([O-])CC1 (stereo not shown) [Example 37, trifluoroacetate salt]
< 100 nM

* * *

Target: PI3Kδ (p110δ/p85α) Recombinant Human Protein (Homo sapiens (Human), UniProt O00329)
Sequence (O00329 whole entry): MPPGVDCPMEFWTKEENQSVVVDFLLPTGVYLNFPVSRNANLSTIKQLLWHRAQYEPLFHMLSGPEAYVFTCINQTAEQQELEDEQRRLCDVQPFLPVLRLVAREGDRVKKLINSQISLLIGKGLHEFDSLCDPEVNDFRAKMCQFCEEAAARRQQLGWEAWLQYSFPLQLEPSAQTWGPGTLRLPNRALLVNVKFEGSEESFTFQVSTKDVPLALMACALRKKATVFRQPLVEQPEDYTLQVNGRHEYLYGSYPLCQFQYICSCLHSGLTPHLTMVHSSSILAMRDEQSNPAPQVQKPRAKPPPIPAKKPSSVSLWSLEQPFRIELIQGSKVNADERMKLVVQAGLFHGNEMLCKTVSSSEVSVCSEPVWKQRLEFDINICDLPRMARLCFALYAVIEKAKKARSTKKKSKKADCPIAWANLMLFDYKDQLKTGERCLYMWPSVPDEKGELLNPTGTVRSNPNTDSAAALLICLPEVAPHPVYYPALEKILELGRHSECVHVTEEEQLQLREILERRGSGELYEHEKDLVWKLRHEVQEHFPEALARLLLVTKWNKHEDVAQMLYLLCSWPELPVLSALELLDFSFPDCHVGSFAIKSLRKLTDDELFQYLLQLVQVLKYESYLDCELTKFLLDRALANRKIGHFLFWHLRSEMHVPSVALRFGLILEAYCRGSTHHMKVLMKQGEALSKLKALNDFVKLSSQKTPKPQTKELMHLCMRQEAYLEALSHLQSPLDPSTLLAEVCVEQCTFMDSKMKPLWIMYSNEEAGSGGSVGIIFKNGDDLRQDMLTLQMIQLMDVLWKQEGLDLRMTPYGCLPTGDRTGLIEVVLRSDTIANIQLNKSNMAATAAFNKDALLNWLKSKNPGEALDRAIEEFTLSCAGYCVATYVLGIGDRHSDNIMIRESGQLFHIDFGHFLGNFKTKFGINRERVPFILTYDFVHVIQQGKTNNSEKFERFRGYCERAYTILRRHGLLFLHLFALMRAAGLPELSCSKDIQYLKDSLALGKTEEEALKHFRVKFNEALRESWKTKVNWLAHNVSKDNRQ
Sequence (P27986 whole entry partner): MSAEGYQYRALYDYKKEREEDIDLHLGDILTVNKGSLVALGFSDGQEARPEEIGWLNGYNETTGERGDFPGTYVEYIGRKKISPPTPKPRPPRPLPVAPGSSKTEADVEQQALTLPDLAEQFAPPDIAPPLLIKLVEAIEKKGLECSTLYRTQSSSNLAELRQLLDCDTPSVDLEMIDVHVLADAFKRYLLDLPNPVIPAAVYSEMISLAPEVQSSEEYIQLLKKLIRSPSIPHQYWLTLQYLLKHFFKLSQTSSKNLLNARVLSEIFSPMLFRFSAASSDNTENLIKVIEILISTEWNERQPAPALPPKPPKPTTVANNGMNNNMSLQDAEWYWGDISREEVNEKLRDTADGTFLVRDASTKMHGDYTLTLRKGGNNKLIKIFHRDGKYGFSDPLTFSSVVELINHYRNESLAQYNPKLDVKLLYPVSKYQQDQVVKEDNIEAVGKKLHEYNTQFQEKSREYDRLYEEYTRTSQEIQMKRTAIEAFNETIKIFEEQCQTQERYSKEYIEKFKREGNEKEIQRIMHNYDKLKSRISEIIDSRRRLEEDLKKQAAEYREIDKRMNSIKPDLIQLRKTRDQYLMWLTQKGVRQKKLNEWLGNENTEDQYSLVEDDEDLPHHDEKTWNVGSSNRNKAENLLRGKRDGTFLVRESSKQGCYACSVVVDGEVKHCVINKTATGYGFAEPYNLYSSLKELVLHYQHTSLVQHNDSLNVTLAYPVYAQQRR
Test: PI3Kδ scintillation proximity assay
Type: biochemical
Conditions: 2 μM ATP, 20 μM PIP2
Structures can show the parent of a compound that is named as a salt.
observation-type: IC50

Below: 3 compounds and their reported IC50.
compound: CC(=O)N[C@H]1CCCN(c2c(C(C)NC(=O)c3c(N)nn4cccnc34)cc(Cl)c3cn[nH]c23)C1 (stereo partly shown) [Example 104, trifluoroacetate]
measured: < 0.1 µM

compound: CCOC(=O)C1CCN(c2c(C(C)NC(=O)c3c(N)nn4cccnc34)cc(Cl)c3cn[nH]c23)CC1 (stereo not shown) [Example 106, trifluoroacetate]
measured: < 0.5 µM

compound: CCOc1c(C(C)NC(=O)c2c(N)nn3cccnc23)cc(Cl)c2c(C#N)n[nH]c12 (stereo not shown) [Example 86, trifluoroacetate]
measured: < 0.5 µM

Which IC50 is listed for Cc1nc(F)c2c(Cl)cc(C(C)NC(=O)c3c(N)nn4cccnc34)c(-c3cn[nH]c3)n12 (racemic) [Example 123, trifluoroacetate salt] ?
< 0.1 µM

Next compound: CC(NC(=O)c1c(N)nn2cccnc12)c1cc(Cl)c2cncn2c1N1CCCC(O)C1 (stereo not shown) [Example 152, trifluoroacetate salt]
< 0.1 µM

Also CC(NC(=O)c1c(N)nn2cccnc12)c1cc(Cl)c2c(C#N)cnn2c1N1CCS(=O)(=O)CC1 (stereo not shown) [Example 60, trifluoroacetate] ?
< 0.5 µM

Same for CC(NC(=O)c1c(N)nn2cccnc12)c1cc(Cl)c2cncn2c1N1CCC(C)(C#N)CC1 (stereo not shown) [Example 88, trifluoroacetate]
< 0.1 µM

* * *

Target: PI3Kγ (p110γ) Recombinant Human Protein (Homo sapiens (Human), UniProt P48736)
Assay: PI3K-γ scintillation proximity assay
Details: 2 μM ATP, 20 μM PIP2
Structures can show the parent of a compound that is named as a salt.
Recorded IC50, one value per entry.

// solved cases for IC50 follow
compound: CC1CN(c2c(C(NC(=O)c3c(N)nn4cccnc34)C(F)(F)F)cc(Cl)c3c(C#N)ncn23)CCS1(=O)=O (centres unmarked) [Example 177, trifluoroacetate salt]
observation-type: IC50
measured: < 100 nM

compound: CC(=O)N[C@H]1CCCN(c2c(C(C)NC(=O)c3c(N)nn4cccnc34)cc(Cl)c3cn[nH]c23)C1 (some centres unmarked) [Example 104, trifluoroacetate]
observation-type: IC50
measured: < 100 nM

So what does the record say about IC50 for CC(NC(=O)c1c(N)nn2cccnc12)c1cc(Cl)c2cncn2c1-c1cnccn1 (racemic) [Example 138, trifluoroacetate salt] ?
< 100 nM

Do the same for CC(NC(=O)c1c(N)nn2cccnc12)c1cc(Cl)c2cncn2c1N1CCC2(CC1)COC(=O)N2 (centres unmarked) [Example 79, trifluoroacetate] please
< 100 nM

Same for CC1CN(c2c(CNC(=O)c3c(N)nn4cccnc34)cc(Cl)c3c(C#N)ncn23)CCS1(=O)=O (centres unmarked) [Example 174, trifluoroacetate salt]
< 100 nM

Same question, Cc1nnc2c(Cl)cc(C(C)NC(=O)c3c(N)nn4cccnc34)c(-c3ccccc3)n12 (racemic) [Example 184, trifluoroacetate salt] this time
< 500 nM

And CC(NC(=O)c1c(N)nn2cccnc12)c1cc(Cl)c2cncn2c1N1CCCS(=O)(=O)CC1 (racemic) [Example 151, trifluoroacetate salt] ?
< 100 nM

Input CC(NC(=O)c1c(N)nn2cccnc12)c1cc(Cl)c2cncn2c1N1CCCC[C@H]1C (some centres unmarked) [Example 72A, bistrifluoroacetate]
< 100 nM

# repeat for CC(C)C(NC(=O)c1c(N)nn2cccnc12)c1cc(Cl)c2cncn2c1N1CCS(=O)(=O)CC1 (racemic) [Example 181, trifluoroacetate salt]
< 100 nM

Do the same for COC1CCN(c2c(C(C)NC(=O)c3c(N)nn4cccnc34)cc(Cl)c3cn[nH]c23)C1 (centres unmarked) [Example 91, bis(trifluoroacetate)] please
< 100 nM

Another compound to check: CC(NC(=O)c1c(N)nn2cccnc12)c1cc(Cl)c2cn[nH]c2c1OCC(O)CO (centres unmarked) [Example 85, trifluoroacetate]
< 100 nM

Consider next the compound CCOc1c(C(C)NC(=O)c2c(N)nn3cccnc23)cc(Cl)c2c(Br)n(CCO)nc12 (centres unmarked) [Example 53] in the same way.
< 100 nM

Another compound: CC(NC(=O)c1c(N)nn2cccnc12)c1cc(Cl)c2ccnn2c1N1CCC(C#N)CC1 (centres unmarked) [Example 56, trifluoroacetate]
< 100 nM

Next compound: CC(NC(=O)c1c(N)nn2cccnc12)c1cc(Cl)c2cn[nH]c2c1N1CC[C@H](NS(C)(=O)=O)C1 (some centres unmarked) [Example 96A, trifluoroacetate]
< 100 nM

Same for CCOc1c(C(C)NC(=O)c2c(N)nc3ccc(-c4cncc(CO)c4)nn23)cc(Cl)c2cn[nH]c12 (centres unmarked) [Example 48]
< 100 nM

Same lookup for CC(NC(=O)c1c(N)nn2cccnc12)c1cc(Cl)c2cncn2c1N1CCC[C@@H]1C (some centres unmarked) [Example 71B, bistrifluoroacetate] , please.
< 100 nM

// same read-out, input: CC(NC(=O)c1c(N)nn2cccnc12)c1cc(Cl)c2cn[nH]c2c1C1=CCNCC1 (centres unmarked) [Example 99, bis(trifluoroacetate)]
< 500 nM
